So I've got a bunch of molecules here, and I need their pIC50 values.
# Target Or Test System: PI3Kα (Homo sapiens, UniProt P42336)
# Construct: purchased Carna Biosciences
# Sequence (P42336 whole entry): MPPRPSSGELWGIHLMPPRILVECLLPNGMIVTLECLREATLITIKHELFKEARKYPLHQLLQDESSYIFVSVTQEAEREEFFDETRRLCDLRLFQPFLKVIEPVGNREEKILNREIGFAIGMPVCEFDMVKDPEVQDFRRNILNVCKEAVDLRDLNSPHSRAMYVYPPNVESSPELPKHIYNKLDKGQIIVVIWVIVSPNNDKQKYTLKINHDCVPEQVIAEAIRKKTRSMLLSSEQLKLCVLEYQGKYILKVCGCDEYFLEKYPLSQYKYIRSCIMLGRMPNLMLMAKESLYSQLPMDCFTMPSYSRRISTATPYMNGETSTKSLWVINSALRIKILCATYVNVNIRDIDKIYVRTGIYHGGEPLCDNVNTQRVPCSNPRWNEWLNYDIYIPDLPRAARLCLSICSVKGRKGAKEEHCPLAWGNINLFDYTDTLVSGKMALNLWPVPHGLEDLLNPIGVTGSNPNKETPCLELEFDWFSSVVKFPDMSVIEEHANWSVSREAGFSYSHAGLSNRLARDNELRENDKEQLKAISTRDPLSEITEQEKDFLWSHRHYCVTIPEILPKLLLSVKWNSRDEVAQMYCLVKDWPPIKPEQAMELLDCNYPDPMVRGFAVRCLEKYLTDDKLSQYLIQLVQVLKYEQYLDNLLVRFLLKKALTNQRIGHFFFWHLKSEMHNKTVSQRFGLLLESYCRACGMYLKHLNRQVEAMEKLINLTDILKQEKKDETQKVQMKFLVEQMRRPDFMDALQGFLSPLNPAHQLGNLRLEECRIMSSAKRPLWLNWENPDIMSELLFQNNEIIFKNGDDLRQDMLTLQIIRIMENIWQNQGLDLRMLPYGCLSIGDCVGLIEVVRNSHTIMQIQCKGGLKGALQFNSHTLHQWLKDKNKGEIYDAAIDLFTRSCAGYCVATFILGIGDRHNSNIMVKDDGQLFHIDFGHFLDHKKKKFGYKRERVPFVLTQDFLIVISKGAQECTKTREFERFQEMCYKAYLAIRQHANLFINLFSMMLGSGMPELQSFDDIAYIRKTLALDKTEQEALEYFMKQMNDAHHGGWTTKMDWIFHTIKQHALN
# Sequence (P27986 whole entry partner): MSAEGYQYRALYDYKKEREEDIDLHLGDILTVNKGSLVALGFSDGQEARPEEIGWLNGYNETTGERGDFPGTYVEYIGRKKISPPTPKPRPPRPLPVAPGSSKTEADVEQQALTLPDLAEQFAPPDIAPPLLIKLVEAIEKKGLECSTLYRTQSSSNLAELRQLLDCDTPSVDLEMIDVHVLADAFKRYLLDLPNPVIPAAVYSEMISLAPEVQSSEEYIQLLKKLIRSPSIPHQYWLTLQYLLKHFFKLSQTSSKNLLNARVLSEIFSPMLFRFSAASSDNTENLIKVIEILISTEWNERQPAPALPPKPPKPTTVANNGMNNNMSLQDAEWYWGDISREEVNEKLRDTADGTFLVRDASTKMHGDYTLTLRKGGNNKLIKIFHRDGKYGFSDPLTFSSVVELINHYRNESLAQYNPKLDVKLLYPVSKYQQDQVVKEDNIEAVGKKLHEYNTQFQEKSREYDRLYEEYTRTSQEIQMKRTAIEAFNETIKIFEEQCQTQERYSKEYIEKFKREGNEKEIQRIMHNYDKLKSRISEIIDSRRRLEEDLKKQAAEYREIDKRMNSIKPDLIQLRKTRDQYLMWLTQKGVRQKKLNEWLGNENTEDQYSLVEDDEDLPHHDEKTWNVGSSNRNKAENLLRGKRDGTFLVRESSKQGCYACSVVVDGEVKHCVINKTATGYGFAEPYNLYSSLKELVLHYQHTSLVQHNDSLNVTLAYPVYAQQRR
# Measurement Protocol: In vitro kinase inhibition assay for PI3K (ADP-Glo), PI3Kα
# Format: biochemical
# Settings: IC50 PI3K α, recombinant kinase, ADP-Glo, mean of two independent experiments
Give bare numbers, as −log10 of the molar value.

Sample records with pIC50:
Smi: CC(C)(C)N1CCN(Cc2cc3nc(-c4cccc5[nH]ccc45)cc(N4CCOCC4)n3n2)CC1
Target Or Test System: PI3Kα (Homo sapiens, UniProt P42336)
Measurement: 4.90
--
Smi: CC(C)(O)C1CCN(Cc2cc3nc(-c4ccnc5[nH]ccc45)cc(N4CCOCC4)n3n2)CC1
Target Or Test System: PI3Kα (Homo sapiens, UniProt P42336)
Measurement: 5.01
--
Smi: CC(C)(O)C1CCN(Cc2cc3nc(-c4cncc5[nH]ccc45)cc(N4CCOCC4)n3n2)CC1
Target Or Test System: PI3Kα (Homo sapiens, UniProt P42336)
Measurement: 5.44
--
Smi: CC(C)(O)C1CCN(Cc2cc3nc(-c4c(F)ccc5[nH]ccc45)cc(N4CCOCC4)n3n2)CC1
Target Or Test System: PI3Kα (Homo sapiens, UniProt P42336)
Measurement: 4.46
--
Smi: c1cc(-c2cc(N3CCOCC3)n3nc(CN4CCN(C5COC5)CC4)cc3n2)c2cc[nH]c2c1
Target Or Test System: PI3Kα (Homo sapiens, UniProt P42336)
Measurement: 4.73
--
Smi: c1cc(-c2cc(N3CCOCC3)n3nc(CN4CCN(CC5CC5)CC4)cc3n2)c2cc[nH]c2c1
Target Or Test System: PI3Kα (Homo sapiens, UniProt P42336)
Measurement: 5.20
--
Smi: CCNC(=O)NC1CCN(Cc2cc3nc(-c4cccc5[nH]ccc45)cc(N4CCOCC4)n3n2)CC1
Target Or Test System: PI3Kα (Homo sapiens, UniProt P42336)
Measurement: 4.85
--
Smi: CC(C)(C)N1CCN(Cc2cc3nc(-c4ccnc5[nH]ccc45)cc(N4CCOCC4)n3n2)CC1
Target Or Test System: PI3Kα (Homo sapiens, UniProt P42336)
Measurement: 5.53

**Q:** For the record `CC(C)(C)C1CCN(Cc2cc3nc(-c4cccc5[nH]ccc45)cc(N4CCOCC4)n3n2)CC1` , what value of pIC50 is listed for PI3Kα (Homo sapiens, UniProt P42336)?
**A:** 4.91

====

# Target Or Test System: PI3Kδ (Homo sapiens, UniProt O00329)
# Construct: purchased Merck Millipore
# Sequence (P27986 whole entry): as the sequence (P27986 whole entry partner) above
# Sequence (O00329 whole entry): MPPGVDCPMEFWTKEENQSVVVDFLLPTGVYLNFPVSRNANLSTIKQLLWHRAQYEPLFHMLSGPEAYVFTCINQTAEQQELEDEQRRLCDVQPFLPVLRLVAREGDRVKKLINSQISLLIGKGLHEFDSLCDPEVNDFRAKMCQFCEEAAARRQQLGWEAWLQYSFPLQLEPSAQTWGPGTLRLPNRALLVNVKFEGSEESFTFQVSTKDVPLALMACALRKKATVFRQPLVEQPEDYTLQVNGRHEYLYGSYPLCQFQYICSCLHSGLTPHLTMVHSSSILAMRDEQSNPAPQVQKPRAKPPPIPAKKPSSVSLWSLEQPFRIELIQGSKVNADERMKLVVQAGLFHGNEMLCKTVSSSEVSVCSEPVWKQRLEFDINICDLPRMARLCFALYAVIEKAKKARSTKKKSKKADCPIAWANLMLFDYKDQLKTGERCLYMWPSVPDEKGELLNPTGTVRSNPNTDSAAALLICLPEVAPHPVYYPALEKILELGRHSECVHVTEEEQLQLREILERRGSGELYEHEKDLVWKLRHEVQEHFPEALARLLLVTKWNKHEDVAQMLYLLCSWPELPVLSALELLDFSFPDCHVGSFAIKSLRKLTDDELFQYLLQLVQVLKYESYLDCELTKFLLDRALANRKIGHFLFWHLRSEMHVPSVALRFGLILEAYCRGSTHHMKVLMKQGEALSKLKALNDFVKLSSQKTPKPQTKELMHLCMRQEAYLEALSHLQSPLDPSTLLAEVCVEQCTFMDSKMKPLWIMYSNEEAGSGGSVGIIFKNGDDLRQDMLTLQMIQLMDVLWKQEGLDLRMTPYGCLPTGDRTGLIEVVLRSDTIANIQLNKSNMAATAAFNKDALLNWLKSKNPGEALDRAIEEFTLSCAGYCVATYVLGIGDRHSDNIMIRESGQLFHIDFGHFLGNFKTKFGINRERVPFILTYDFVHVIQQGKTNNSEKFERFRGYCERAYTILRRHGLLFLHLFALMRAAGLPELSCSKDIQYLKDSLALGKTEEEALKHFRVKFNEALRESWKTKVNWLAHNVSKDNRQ
# Measurement Protocol: In vitro kinase inhibition assay for PI3K (ADP-Glo), PI3Kδ
# Assay type: biochemical
# Settings: recombinant kinase, mean of two independent experiments, read-out: IC50 PI3K δ
Hi! Just check whether IC50 is below 50 nM. Below gives T, equal or above gives F.

Recorded results for 6 molecules are shown here.
Smi: CCNC(=O)NC1CCN(Cc2cc3nc(-c4cccc5[nH]ccc45)cc(N4CCOCC4)n3n2)CC1
Class: F
//
Smi: c1cc(-c2cc(N3CCOCC3)n3nc(CN4CCN(C5CCCC5)CC4)cc3n2)c2cc[nH]c2c1
Class: T
//
Smi: c1cc(-c2cc(N3CCOCC3)n3nc(CN4CCN(C5CC5)CC4)cc3n2)c2cc[nH]c2c1
Class: F
//
Smi: O=C(C1CC1)N1CCN(Cc2cc3nc(-c4cccc5[nH]ccc45)cc(N4CCOCC4)n3n2)CC1
Class: T
//
Smi: O=C(Nc1ccccc1)NC1CCN(Cc2cc3nc(-c4cccc5[nH]ccc45)cc(N4CCOCC4)n3n2)CC1
Class: F
//
Smi: CC(C)(O)C1CCN(Cc2cc3nc(-c4cccc5[nH]ccc45)cc(N4CCOCC4)n3n2)CC1
Class: T

Pending molecule:
**Q:** Item `CCN1CCN(Cc2cc3nc(-c4cccc5[nH]ccc45)cc(N4CCOCC4)n3n2)CC1` : IC50 beneath 50 nM, strictly?
**A:** T

====

# Measurement Protocol: Metabolic phase I stability in mouse microsomes
# Type: in vitro ADME
# Settings: CD-1, liver microsomes, mouse microsomes 0.5 mg/mL, NADPH, 37 °C, read-out: MLM t1/2
Result Type: half-life at 1 μM (h)
Numbers only, in h.

**Q:** Fill in: half-life at 1 μM of `CC(C)(C)N1CCN(Cc2cc3nc(-c4cccc5[nH]ccc45)cc(N4CCOCC4)n3n2)CC1` is ___
**A:** 2.1

====

# Measurement Protocol: Metabolic phase I stability in human microsomes
# Type: in vitro ADME
# Settings: human microsomes 0.5 mg/mL, NADPH, 37 °C, read-out: HLM t1/2
Result Type: half-life at 1 μM (h)
Answers are plain numbers, in h.

**Q:** Give its half-life at 1 μM value. Item: `CC(C)(C)N1CCN(Cc2cc3nc(-c4cncc5[nH]ccc45)cc(N4CCOCC4)n3n2)CC1`
**A:** 6.17

====

Field: IC50. Provide a value for each of the molecules that follow.
# Target Or Test System: PI3Kβ (Homo sapiens, UniProt P42338)
# Construct: purchased Merck Millipore
# Sequence (P42338 whole entry): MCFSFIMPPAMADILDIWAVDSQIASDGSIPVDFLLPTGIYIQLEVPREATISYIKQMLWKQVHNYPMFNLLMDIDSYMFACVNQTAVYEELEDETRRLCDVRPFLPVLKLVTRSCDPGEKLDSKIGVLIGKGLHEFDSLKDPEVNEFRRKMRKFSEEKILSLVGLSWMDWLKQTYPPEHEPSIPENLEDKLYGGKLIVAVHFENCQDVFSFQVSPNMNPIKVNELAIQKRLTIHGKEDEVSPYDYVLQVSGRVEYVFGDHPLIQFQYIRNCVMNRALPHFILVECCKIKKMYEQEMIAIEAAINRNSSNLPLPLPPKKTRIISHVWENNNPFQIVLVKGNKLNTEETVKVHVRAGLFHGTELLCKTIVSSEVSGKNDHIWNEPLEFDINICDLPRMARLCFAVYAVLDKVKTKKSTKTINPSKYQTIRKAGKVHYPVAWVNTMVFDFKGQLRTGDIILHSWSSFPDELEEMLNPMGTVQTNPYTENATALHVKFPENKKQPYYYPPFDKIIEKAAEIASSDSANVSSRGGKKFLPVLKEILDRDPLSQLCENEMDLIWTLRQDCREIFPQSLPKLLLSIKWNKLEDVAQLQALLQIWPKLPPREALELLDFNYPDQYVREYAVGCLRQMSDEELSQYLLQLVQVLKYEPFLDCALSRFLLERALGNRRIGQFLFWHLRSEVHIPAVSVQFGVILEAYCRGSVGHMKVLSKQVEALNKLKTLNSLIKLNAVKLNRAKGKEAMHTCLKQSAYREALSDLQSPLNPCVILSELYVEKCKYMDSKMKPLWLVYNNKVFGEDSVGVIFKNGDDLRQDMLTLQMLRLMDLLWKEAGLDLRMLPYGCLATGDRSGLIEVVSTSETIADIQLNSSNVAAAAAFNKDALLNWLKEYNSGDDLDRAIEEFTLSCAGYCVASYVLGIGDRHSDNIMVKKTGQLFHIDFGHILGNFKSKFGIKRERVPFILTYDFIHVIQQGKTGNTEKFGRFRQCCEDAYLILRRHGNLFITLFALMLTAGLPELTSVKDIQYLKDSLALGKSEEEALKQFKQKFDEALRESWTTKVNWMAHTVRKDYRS
# Sequence (P27986 whole entry, further chain): as the sequence (P27986 whole entry partner) above
# Measurement Protocol: In vitro kinase inhibition assay for PI3K (ADP-Glo), PI3Kβ
# Assay type: biochemical
# Settings: recombinant kinase, ADP-Glo, mean of two independent experiments; read-out: IC50 PI3K β
Numbers only, in µM.

Molecule: CC(C)(C)C1CCN(Cc2cc3nc(-c4cccc5[nH]ccc45)cc(N4CCOCC4)n3n2)CC1 [Compound 41]
Readout Units: µM
Measurement: 3.17
--
Molecule: CC(C)(O)C1CCN(Cc2cc3nc(-c4cccc5[nH]ccc45)cc(N4CCOCC4)n3n2)CC1 [Compound 36]
Readout Units: µM
Measurement: 4.31
--
Molecule: CC(C)(C)N1CCN(Cc2cc3nc(-c4ccnc5[nH]ccc45)cc(N4CCOCC4)n3n2)CC1 [Compound 55]
Readout Units: µM
Measurement: 32

Field: next molecule
**Q:** Give its IC50 value. Item: CC(C)(O)C1CCN(Cc2cc3nc(-c4c(F)ccc5[nH]ccc45)cc(N4CCOCC4)n3n2)CC1 [Compound 49]
**A:** 11.3

====

# Target Or Test System: PI3Kβ (Homo sapiens)
# Construct: purchased Merck Millipore
# Measurement Protocol: In vitro kinase inhibition assay for PI3K (ADP-Glo), PI3Kβ
# Format: biochemical
# Settings: recombinant kinase, ADP-Glo, mean of two independent experiments; read-out: IC50 PI3K β
# Method: Tested compounds were dissolved in 100% DMSO, and obtained solutions were serially diluted in 1× reaction buffer. […] Detection of ADP formed in the enzymatic reaction was then performed using ADP-Glo Kinase Assay™ (Promega, Madison, WI, USA). […] Once the incubation was complete, the luminescence intensity was measured using a Victor Light luminometer (Perkin Elmer, Inc., Waltham, MA, USA). […]
Result Type: IC50 (µM)
Numbers only, in µM.

As a guide, the following entries are already answered.
Compound: CC(C)(C(N)=O)N1CCN(Cc2cc3nc(-c4cccc5[nH]ccc45)cc(N4CCOCC4)n3n2)CC1 [Compound 38]
IC50 / µM: 5.99
//
Compound: CC(C)(O)C1CCN(Cc2cc3nc(-c4ccnc5[nH]ccc45)cc(N4CCOCC4)n3n2)CC1 [Compound 51]
IC50 / µM: 26.8
//
Compound: O=C(C1CC1)N1CCN(Cc2cc3nc(-c4cccc5[nH]ccc45)cc(N4CCOCC4)n3n2)CC1 [Compound 44]
IC50 / µM: 7.31
//
Compound: CC(C)(C)N1CCN(Cc2cc3nc(-c4cccc5[nH]ccc45)cc(N4CCOCC4)n3n2)CC1 [Compound 37]
IC50 / µM: 5.47
//
Compound: CN(C)C1CCN(Cc2cc3nc(-c4cccc5[nH]ccc45)cc(N4CCOCC4)n3n2)CC1 [Compound 24]
IC50 / µM: 14.4

Batch of 3 compounds: report IC50 for each.
1. CCN1CCN(Cc2cc3nc(-c4cccc5[nH]ccc45)cc(N4CCOCC4)n3n2)CC1 [Compound 34]
2. CC(C)(O)C1CCN(Cc2cc3nc(-c4cncc5[nH]ccc45)cc(N4CCOCC4)n3n2)CC1 [Compound 50]
3. c1cc(-c2cc(N3CCOCC3)n3nc(CN4CCN(C5CC5)CC4)cc3n2)c2cc[nH]c2c1 [Compound 39]

**A:**
10.9
5.26
15

====

# Measurement Protocol: Metabolic phase I stability in mouse microsomes
# Assay type: in vitro ADME
# Settings: CD-1, liver microsomes, heading: MLM Cl, mouse microsomes 0.5 mg/mL, NADPH, 37 °C
# Experimental: Assessment of metabolic phase I stability in mouse (CD-1™) and human microsomes (Thermo-Fisher Scientific, Waltham, MA, USA) was performed on 96-well non-binding plates (Greiner, Frickenhausen, Germany) at 1 μM concentration for verapamil (positive control) and donepezil (negative control) and tested compounds. Unless otherwise stated, all chemicals and materials were ordered from Merck Life Science (Palo Alto, CA, USA). Each biological replicate was prepared in triplicates. […]
Result Type: microsomal CLint at 1 μM (µL/min/mg)
One number for each entry, in µL/min/mg.

**Q:** Which value of microsomal CLint at 1 μM has been reported for `CC(C)(C)N1CCN(Cc2cc3nc(-c4cccc5[nH]ccc45)cc(N4CCOCC4)n3n2)CC1` in the records?
**A:** 13.7
